Numbers sourced from the NIST ThermoML archive (doi:10.1016/j.jct.2009.11.014).

The reader will find reported mass density values listed item by item below.
- experimental.setup: 308.15 K; 50000 kPa; Liquid; vibrating tube
State the answer as a number, implicitly in kg/m3.

Solved entries (count: 3):
compound	measurement.label	quantitative.readout
CCCCn1cc[n+](C)c1.F[B-](F)(F)F [1-butyl-3-methylimidazolium tetrafluoroborate]	mass density	1216.54
CCCCCCn1cc[n+](C)c1.F[B-](F)(F)F [1-hexyl-3-methylimidazolium tetrafluoroborate]	mass density	1161.57
CCn1cc[n+](C)c1.F[B-](F)(F)F [1-ethyl-3-methylimidazolium tetrafluoroborate]	mass density	1298.92

Kindly consider the entry below.
[Q] Reported mass density, compound CCCCCCCC[n+]1ccn(C)c1.F[B-](F)(F)F [1-methyl-3-octylimidazolium tetrafluoroborate] : ____
[A] 1121.29

====

Attribute: mass density
- experimental.setup: 283.15 K; 2000 kPa; Liquid; vibrating tube
Field format: number, assumed kg/m3, no unit text.

compound	units.symbol	quantitative.readout
CCCCCCn1cc[n+](C)c1.F[B-](F)(F)F [1-hexyl-3-methylimidazolium tetrafluoroborate]	kg/m3	1156.84
CCCCCCCC[n+]1ccn(C)c1.F[B-](F)(F)F [1-methyl-3-octylimidazolium tetrafluoroborate]	kg/m3	1115.49
CCCCn1cc[n+](C)c1.F[B-](F)(F)F [1-butyl-3-methylimidazolium tetrafluoroborate]	kg/m3	1213.37

[Q] For CCn1cc[n+](C)c1.F[B-](F)(F)F [1-ethyl-3-methylimidazolium tetrafluoroborate] , what is its reported mass density?
[A] 1297.83

====

Consider the following compounds and their measured mass density readings.
- experimental.setup: 308.15 K; 2000 kPa; Liquid; vibrating tube
Numbers after ± are expanded uncertainties.

Sample records with mass density:
compound	mass density
CCCCCCCC[n+]1ccn(C)c1.F[B-](F)(F)F [1-methyl-3-octylimidazolium tetrafluoroborate]	1098.5 ± 0.94 kg/m3
CCCCCCn1cc[n+](C)c1.F[B-](F)(F)F [1-hexyl-3-methylimidazolium tetrafluoroborate]	1139.5 ± 0.96 kg/m3
CCn1cc[n+](C)c1.F[B-](F)(F)F [1-ethyl-3-methylimidazolium tetrafluoroborate]	1278.81 ± 1.6 kg/m3

Field: next compound
[Q] What does the data say about its mass density? Entry: CCCCn1cc[n+](C)c1.F[B-](F)(F)F [1-butyl-3-methylimidazolium tetrafluoroborate]
[A] 1195.44 ± 0.98 kg/m3

====

- experimental.setup: 303.15 K; 10000 kPa; Liquid; vibrating tube
± gives the expanded uncertainty stated by the source.
Form field: mass density (one value per entry).
Note to self: number, then unit, no commentary.

Known mass density results, listed for orientation:
compound	result
CCCCCCn1cc[n+](C)c1.F[B-](F)(F)F [1-hexyl-3-methylimidazolium tetrafluoroborate]	1146.85 ± 0.96 kg/m3
CCCCCCCC[n+]1ccn(C)c1.F[B-](F)(F)F [1-methyl-3-octylimidazolium tetrafluoroborate]	1105.98 ± 0.94 kg/m3
CCn1cc[n+](C)c1.F[B-](F)(F)F [1-ethyl-3-methylimidazolium tetrafluoroborate]	1286.08 ± 1.6 kg/m3

# context switch: different compound, same mass density
[Q] Look up mass density: CCCCn1cc[n+](C)c1.F[B-](F)(F)F [1-butyl-3-methylimidazolium tetrafluoroborate]
[A] 1202.7 ± 0.98 kg/m3

====

- experimental.setup: 323.15 K; 50000 kPa; Liquid; vibrating tube
measurement.label: mass density (kg/m3)
Response body: numeric value in kg/m3, unit text excluded.

compound	quantitative.readout
CCCCCCCC[n+]1ccn(C)c1.F[B-](F)(F)F [1-methyl-3-octylimidazolium tetrafluoroborate]	1112.12
CCCCn1cc[n+](C)c1.F[B-](F)(F)F [1-butyl-3-methylimidazolium tetrafluoroborate]	1206.8
CCCCCCn1cc[n+](C)c1.F[B-](F)(F)F [1-hexyl-3-methylimidazolium tetrafluoroborate]	1152.14

Let's switch to this compound now.
[Q] Look up mass density for this compound: CCn1cc[n+](C)c1.F[B-](F)(F)F [1-ethyl-3-methylimidazolium tetrafluoroborate]
[A] 1288.41

====

// values below are reported mass density
- experimental.setup: 283.15 K; 30000 kPa; Liquid; vibrating tube
Numbers after ± are expanded uncertainties.

molecule	result
CCCCn1cc[n+](C)c1.F[B-](F)(F)F [1-butyl-3-methylimidazolium tetrafluoroborate]	1225.42 ± 0.98 kg/m3
CCCCCCCC[n+]1ccn(C)c1.F[B-](F)(F)F [1-methyl-3-octylimidazolium tetrafluoroborate]	1128.45 ± 0.94 kg/m3
CCn1cc[n+](C)c1.F[B-](F)(F)F [1-ethyl-3-methylimidazolium tetrafluoroborate]	1309.33 ± 1.7 kg/m3

Kindly review the next molecule as well.
[Q] Requested field: mass density. Item: CCCCCCn1cc[n+](C)c1.F[B-](F)(F)F [1-hexyl-3-methylimidazolium tetrafluoroborate]
[A] 1169.4 ± 0.96 kg/m3

====

- experimental.setup: 283.15 K; 4000 kPa; Liquid; vibrating tube
# mass density annotations
Entry rule: numbers only, all in kg/m3.

compound	mass density [kg/m3]
CCn1cc[n+](C)c1.F[B-](F)(F)F [1-ethyl-3-methylimidazolium tetrafluoroborate]	1298.68
CCCCCCn1cc[n+](C)c1.F[B-](F)(F)F [1-hexyl-3-methylimidazolium tetrafluoroborate]	1157.76
CCCCn1cc[n+](C)c1.F[B-](F)(F)F [1-butyl-3-methylimidazolium tetrafluoroborate]	1214.24

[Q] Which mass density is listed for CCCCCCCC[n+]1ccn(C)c1.F[B-](F)(F)F [1-methyl-3-octylimidazolium tetrafluoroborate] ?
[A] 1116.46

====

- experimental.setup: 298.15 K; 50000 kPa; Liquid; vibrating tube
# mass density per entry
Numbers only here, please. The scale is kg/m3.

Previously resolved entries follow.
compound	units.symbol	quantitative.readout
CCCCn1cc[n+](C)c1.F[B-](F)(F)F [1-butyl-3-methylimidazolium tetrafluoroborate]	kg/m3	1223.24
CCCCCCn1cc[n+](C)c1.F[B-](F)(F)F [1-hexyl-3-methylimidazolium tetrafluoroborate]	kg/m3	1167.96
CCn1cc[n+](C)c1.F[B-](F)(F)F [1-ethyl-3-methylimidazolium tetrafluoroborate]	kg/m3	1306.09

Query compound follows.
[Q] Give its mass density value. Item: CCCCCCCC[n+]1ccn(C)c1.F[B-](F)(F)F [1-methyl-3-octylimidazolium tetrafluoroborate]
[A] 1127.47

====

Each entry below carries its reported mass density.
- experimental.setup: 303.15 K; 40000 kPa; Liquid; vibrating tube
Record the value in kg/m3, omitting the unit from your answer.

Previously resolved entries follow.
compound	mass density [kg/m3]
CCCCCCn1cc[n+](C)c1.F[B-](F)(F)F [1-hexyl-3-methylimidazolium tetrafluoroborate]	1160.55
CCn1cc[n+](C)c1.F[B-](F)(F)F [1-ethyl-3-methylimidazolium tetrafluoroborate]	1298.58
CCCCn1cc[n+](C)c1.F[B-](F)(F)F [1-butyl-3-methylimidazolium tetrafluoroborate]	1215.79

Proceed to the following item.
[Q] Give its mass density value. Item: CCCCCCCC[n+]1ccn(C)c1.F[B-](F)(F)F [1-methyl-3-octylimidazolium tetrafluoroborate]
[A] 1120.01

====

// reported mass density per item
- experimental.setup: 303.15 K; 20000 kPa; Liquid; vibrating tube
± gives the expanded uncertainty stated by the source.
A complete answer gives the number followed by the unit.

Some compounds with recorded mass density:
compound	mass density
CCn1cc[n+](C)c1.F[B-](F)(F)F [1-ethyl-3-methylimidazolium tetrafluoroborate]	1290.4 ± 1.6 kg/m3
CCCCCCCC[n+]1ccn(C)c1.F[B-](F)(F)F [1-methyl-3-octylimidazolium tetrafluoroborate]	1110.85 ± 0.94 kg/m3
CCCCn1cc[n+](C)c1.F[B-](F)(F)F [1-butyl-3-methylimidazolium tetrafluoroborate]	1207.18 ± 0.98 kg/m3

Here is another compound to look at.
[Q] Which mass density is reported for this compound? CCCCCCn1cc[n+](C)c1.F[B-](F)(F)F [1-hexyl-3-methylimidazolium tetrafluoroborate]
[A] 1151.57 ± 0.96 kg/m3

====

Attribute: mass density
- experimental.setup: 298.15 K; 30000 kPa; Liquid; vibrating tube
Quick reminder: number only, in kg/m3, skip the unit.

[Q] Need mass density of CCCCCCCC[n+]1ccn(C)c1.F[B-](F)(F)F [1-methyl-3-octylimidazolium tetrafluoroborate] , thanks.
[A] 1118.74

====

- experimental.setup: 298.15 K; 4000 kPa; Liquid; vibrating tube
Items are presented alongside their recorded mass density.
The answer is to be given in kg/m3; state only the numeric part.

compound	units.symbol	mass density
CCCCCCCC[n+]1ccn(C)c1.F[B-](F)(F)F [1-methyl-3-octylimidazolium tetrafluoroborate]	kg/m3	1106.28

[Q] Endpoint output: mass density of CCCCn1cc[n+](C)c1.F[B-](F)(F)F [1-butyl-3-methylimidazolium tetrafluoroborate] . Value?
[A] 1203.45

[Q] Look up mass density: CCCCCCn1cc[n+](C)c1.F[B-](F)(F)F [1-hexyl-3-methylimidazolium tetrafluoroborate]
[A] 1147.43

[Q] Entry CCn1cc[n+](C)c1.F[B-](F)(F)F [1-ethyl-3-methylimidazolium tetrafluoroborate] : reported mass density = ?
[A] 1287.22
